- System: NCI-H226 lung
- testName: NCI tumour cell line growth inhibition, 48 h
observedProperty: TGI

molecule=O=C1[C@H](Cl)[C@H]2c3cc4ccccc4nc3Oc3ccccc3N12 testtarget="NCI-H226 lung" observedproperty=TGI result="> 100 µM"
molecule=COc1ccccc1NC(=S)Nc1cc(C)ccn1 testtarget="NCI-H226 lung" observedproperty=TGI result="> 100 µM"
molecule=CCOC(=O)c1[nH]c2nc(SC)nc(Nc3ccccc3Cl)c2c1N testtarget="NCI-H226 lung" observedproperty=TGI result="70.2 µM"
molecule=COc1ccc(CNC(=O)[C@H](Cc2ccc(O)cn2)NC(C)=O)cc1 testtarget="NCI-H226 lung" observedproperty=TGI result="> 100 µM"
molecule="CC(NC(NC(C)C12CC3CC(CC(C3)C1)C2)=C(C(Cl)=C(Cl)Cl)[N+](=O)[O-])C12CC3CC(CC(C3)C1)C2 (centres undefined)" testtarget="NCI-H226 lung" observedproperty=TGI result="> 61.7 µM"
molecule=NC(N)=NS(=O)(=O)c1ccc(NC(=O)c2ccc3[nH]c4ccccc4c(=O)c3c2)cc1 testtarget="NCI-H226 lung" observedproperty=TGI result="> 100 µM"
molecule=C=CCc1cccc(/C=N\N=C(/N)NO)c1O testtarget="NCI-H226 lung" observedproperty=TGI result="11.5 µM"
molecule=CO[C@@H]1[C@H]2[C@@H](C)c3ccoc3C[C@@H]2[C@@]2(C)CC[C@H](OC(=O)c3ccccc3)[C@](C)(C(=O)O)[C@]2(O)[C@@H]1OC(=O)c1ccccc1 testtarget="NCI-H226 lung" observedproperty=TGI result="26.7 µM"
molecule=COc1ccc(Nc2nc3ccccc3nc2C(=O)O)cc1OC testtarget="NCI-H226 lung" observedproperty=TGI result="> 100 µM"
